Value source: patent US10428140B2

# Assay Target: T1, human EphB6 (Homo sapiens, UniProt O15197)
# T1 construct: a protein of the extracellular region of each human Eph receptor fused with the SEAP protein and the His tag; made in house; host or cells: Expi293F cells
# T1 sequence (O15197 32-594 limits assumed): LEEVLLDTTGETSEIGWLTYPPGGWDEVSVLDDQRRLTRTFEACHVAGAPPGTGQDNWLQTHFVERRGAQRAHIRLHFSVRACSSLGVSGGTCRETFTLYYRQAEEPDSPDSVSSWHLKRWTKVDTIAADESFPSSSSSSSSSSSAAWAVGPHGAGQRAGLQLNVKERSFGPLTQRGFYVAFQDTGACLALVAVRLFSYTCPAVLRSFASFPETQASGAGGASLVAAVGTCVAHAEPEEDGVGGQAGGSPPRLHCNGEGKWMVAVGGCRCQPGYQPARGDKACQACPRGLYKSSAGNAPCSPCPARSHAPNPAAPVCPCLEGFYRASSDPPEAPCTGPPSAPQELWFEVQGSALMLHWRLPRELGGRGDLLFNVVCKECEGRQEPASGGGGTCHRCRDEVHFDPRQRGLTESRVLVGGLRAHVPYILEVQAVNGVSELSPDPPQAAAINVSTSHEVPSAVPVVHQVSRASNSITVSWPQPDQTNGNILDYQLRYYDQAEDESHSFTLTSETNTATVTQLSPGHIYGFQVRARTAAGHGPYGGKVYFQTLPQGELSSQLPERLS
# Procedure Summary: Selectivity ELISA of humanized antibodies for human Eph receptor
# Format: binding
# Condition Context: coated protein 1 nM
Assay Readout: hEphB6-SEAP-: absorbance at 450 nm, percentage with respect to hEphA4-SEAP-His as 100% (%)
# value in %; strip the unit string

Previously resolved entries follow.
133 (antibody, V domains shown, synthetic humanized antibody heavy chain variable region sequence; synthetic humanized antibody light chain variable region sequence) VH: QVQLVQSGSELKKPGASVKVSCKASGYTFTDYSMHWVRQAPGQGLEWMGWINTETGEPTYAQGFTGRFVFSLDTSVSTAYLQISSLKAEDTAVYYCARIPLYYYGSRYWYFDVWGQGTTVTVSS VL: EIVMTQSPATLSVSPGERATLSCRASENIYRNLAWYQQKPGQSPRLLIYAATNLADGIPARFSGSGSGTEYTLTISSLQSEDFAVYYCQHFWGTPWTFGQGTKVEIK: 4.8
151 (antibody, V domains shown, synthetic humanized antibody heavy chain variable region sequence; synthetic humanized antibody light chain variable region sequence) VH: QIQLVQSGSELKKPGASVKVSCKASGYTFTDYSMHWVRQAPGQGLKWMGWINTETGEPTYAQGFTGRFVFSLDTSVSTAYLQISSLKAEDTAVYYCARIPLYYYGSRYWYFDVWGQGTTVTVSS VL: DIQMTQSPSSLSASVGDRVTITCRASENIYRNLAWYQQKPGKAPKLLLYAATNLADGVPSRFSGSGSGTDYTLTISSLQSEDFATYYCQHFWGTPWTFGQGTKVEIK: 7.1

## Input Check the records and state hEphB6-SEAP-: absorbance at 450 nm, percentage with respect to hEphA4-SEAP-His as 100% for 160 (antibody, V domains shown, synthetic humanized antibody heavy chain variable region sequence; synthetic humanized antibody light chain variable region sequence) VH: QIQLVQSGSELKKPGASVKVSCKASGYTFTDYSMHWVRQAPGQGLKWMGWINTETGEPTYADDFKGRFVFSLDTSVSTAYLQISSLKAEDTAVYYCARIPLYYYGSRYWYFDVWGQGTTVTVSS VL: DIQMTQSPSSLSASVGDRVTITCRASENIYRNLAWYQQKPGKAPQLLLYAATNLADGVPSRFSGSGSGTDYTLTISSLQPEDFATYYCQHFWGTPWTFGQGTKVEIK
## Output 6.2

## Input Give reported hEphB6-SEAP-: absorbance at 450 nm, percentage with respect to hEphA4-SEAP-His as 100% value for 144 (antibody, V domains shown, synthetic humanized antibody heavy chain variable region sequence; synthetic humanized antibody light chain variable region sequence) VH: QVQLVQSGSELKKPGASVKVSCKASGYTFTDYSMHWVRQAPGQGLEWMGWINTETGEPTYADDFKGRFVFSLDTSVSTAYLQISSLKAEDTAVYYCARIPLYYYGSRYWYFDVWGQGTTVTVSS VL: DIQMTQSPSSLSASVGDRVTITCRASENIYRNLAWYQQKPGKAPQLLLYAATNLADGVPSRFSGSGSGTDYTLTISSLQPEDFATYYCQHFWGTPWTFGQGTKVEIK
## Output 5.9
